Molecular target: cDNA-expressed human hepatic CYP3A4 (Homo sapiens (Human), UniProt P08684)
Sequence (P08684 whole entry): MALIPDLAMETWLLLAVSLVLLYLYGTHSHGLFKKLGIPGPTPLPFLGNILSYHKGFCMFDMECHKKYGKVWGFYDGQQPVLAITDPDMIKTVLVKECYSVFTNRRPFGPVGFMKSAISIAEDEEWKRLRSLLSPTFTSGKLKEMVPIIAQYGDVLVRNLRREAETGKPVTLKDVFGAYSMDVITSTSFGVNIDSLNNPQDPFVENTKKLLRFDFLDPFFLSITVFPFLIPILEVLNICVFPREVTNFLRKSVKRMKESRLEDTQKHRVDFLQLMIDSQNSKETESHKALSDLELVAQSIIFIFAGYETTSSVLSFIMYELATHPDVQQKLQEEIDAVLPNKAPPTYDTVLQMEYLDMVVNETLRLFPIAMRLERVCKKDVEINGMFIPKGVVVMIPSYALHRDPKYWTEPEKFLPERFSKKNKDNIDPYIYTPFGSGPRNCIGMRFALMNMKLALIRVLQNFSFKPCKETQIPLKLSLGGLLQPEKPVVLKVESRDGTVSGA
Assay: Measurement of CYP (IC50 of P450 CYP3A4), BFC substrate
Assay type: in vitro ADME
Settings: 20 minutes
Let's look at some compounds and their measured IC50.
# value in nM; strip the unit string

Reference set, count: 4
COMPOUND	IC50 (nM)
C=CCN1CC(=O)N2[C@@H](Cc3ccc(O)cc3)C(=O)N(Cc3cccc4c(-c5cccc(C(=O)Nc6ccccc6)c5)cn(C)c34)C[C@@H]2N1C(=O)NCc1ccccc1 [Compound D-14]	2130
C=CCN1CC(=O)N2[C@@H](Cc3ccc(O)cc3)C(=O)N(Cc3cccc4c(C(=O)Nc5ccc(OC)cc5)cn(C)c34)C[C@@H]2N1C(=O)NCc1ccccc1 [Compound G-3]	2610
C=CCN1CC(=O)N2C(Cc3ccc(O)cc3)C(=O)N(Cc3cccc4c(C(=O)Nc5ccc(NC6CC(C)(C)N(C)C(C)(C)C6)nc5)cn(C)c34)CC2N1C(=O)NCc1ccccc1 (centres unmarked) [Compound G-52]	7100
C=CCN1CC(=O)N2[C@@H](Cc3ccc(O)cc3)C(=O)N(Cc3cccc4c(C(=O)N5CC6CCN(C)C6C5)cn(C)c34)C[C@@H]2N1C(=O)NCc1ccccc1 (some centres unmarked) [Compound E-68]	2450

Lab note: next compound to report on.
cDNA-expressed human hepatic CYP3A4 (Homo sapiens (Human), UniProt P08684) data for C=CCN1CC(=O)N2[C@@H](Cc3ccc(O)cc3)C(=O)N(Cc3cccc4c(C(=O)N(C)CCO)cn(C)c34)C[C@@H]2N1C(=O)NCc1ccccc1 [Compound F-3] ; its IC50: 2510
